molecular target: D(3) dopamine receptor (Homo sapiens); test: Displacement of [3H]-N-methylspiperone from recombinant human D3 receptor (unknown origin) measured after 90 mins by microbeta scintillation counting method
Sequence (P35462 whole entry): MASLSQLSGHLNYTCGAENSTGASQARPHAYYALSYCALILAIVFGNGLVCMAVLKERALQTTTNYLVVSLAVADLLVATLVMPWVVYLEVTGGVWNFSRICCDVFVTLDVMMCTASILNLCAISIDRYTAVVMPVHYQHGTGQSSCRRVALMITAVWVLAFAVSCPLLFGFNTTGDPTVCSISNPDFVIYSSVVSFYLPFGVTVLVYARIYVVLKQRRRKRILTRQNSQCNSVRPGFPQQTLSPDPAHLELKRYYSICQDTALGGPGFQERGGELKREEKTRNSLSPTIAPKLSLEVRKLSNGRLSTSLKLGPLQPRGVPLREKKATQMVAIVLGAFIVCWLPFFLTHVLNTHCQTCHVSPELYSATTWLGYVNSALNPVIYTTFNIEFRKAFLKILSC
Measured Ki of individual entries
Give just the numeric value; nM need not be written.

CCCN(CCCCNC(=O)c1ccc2ccccc2c1)CC1CC1c1ccc(F)cc1 (stereo unspecified) | 55.8
CCCN(CCCCNC(=O)c1cc2ccccc2[nH]1)CC1CC1c1cc(F)ccc1OC (stereo unspecified) | 11.2
COc1ccc(F)cc1C1CC1CN(C)CCCSc1nnc(-c2ccccc2)n1C (stereo unspecified) | 84.5
CCN(CCCSc1nnc(-c2ccccc2)n1C)CC1CC1c1cc(F)ccc1OC (stereo unspecified) | 44
Cn1c(SCCCNCC2CC2c2cc(F)ccc2OCCF)nnc1-c1ccccc1 (stereo unspecified) | 525

**Query** Looking for the measured Ki of CCN(CCCCNC(=O)c1ccc2ccccc2c1)CC1CC1c1cc(F)ccc1OC (stereo unspecified) , can you help?
**Result** 15

**Query** Now the compound CCCN(CCCCNC(=O)c1ccc(-c2ccccn2)cc1)CC1CC1c1cc(Cl)ccc1OC (stereo unspecified)
**Result** 39.4

**Query** // same read-out, input: CCN(CCCCNC(=O)c1ccc2ccccc2c1)CC1CC1c1cc(Cl)ccc1OC (stereo unspecified)
**Result** 23.4

**Query** Also need CCN(CCCSc1nnc(-c2ccccc2)n1C)CC1CC1c1cc(Cl)ccc1OC (stereo unspecified) , thanks.
**Result** 31.6

**Query** Entry to check: CCCN(CCCCNC(=O)c1cc2ccccc2[nH]1)CC1CC1c1cc(Cl)ccc1OC (stereo unspecified)
**Result** 11.5

**Query** Here is the next compound: COc1ccc(F)cc1C1CC1CN(CCCSc1nnc(-c2ccccc2)n1C)CC1CC1 (stereo unspecified)
**Result** 64.6

====

Biological target: 5-hydroxytryptamine receptor 2C (Homo sapiens)
Sequence (P28335 whole entry): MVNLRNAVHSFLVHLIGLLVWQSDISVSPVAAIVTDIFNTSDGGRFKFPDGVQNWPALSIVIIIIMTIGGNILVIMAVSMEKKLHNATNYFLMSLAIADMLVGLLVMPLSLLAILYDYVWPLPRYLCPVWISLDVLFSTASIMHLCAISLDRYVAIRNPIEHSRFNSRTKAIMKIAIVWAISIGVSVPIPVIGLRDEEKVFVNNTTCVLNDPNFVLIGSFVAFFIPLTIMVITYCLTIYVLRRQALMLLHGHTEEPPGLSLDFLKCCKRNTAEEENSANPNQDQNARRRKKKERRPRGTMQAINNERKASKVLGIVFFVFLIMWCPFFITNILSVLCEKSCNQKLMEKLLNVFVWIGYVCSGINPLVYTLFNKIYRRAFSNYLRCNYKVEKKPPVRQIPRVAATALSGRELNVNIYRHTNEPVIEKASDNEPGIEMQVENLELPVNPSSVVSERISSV
Experiment: Displacement of [3H]-Mesulergine from recombinant human 5HT2C receptor expressed in HEKT cell membranes measured after 90 mins by microbeta scintillation counting method
Let's look at some compounds and their measured pKi.
Please note pKi is a logarithmic value: minus log10 of concentration in mol/L. Answer with that number alone.

CCCN(CCCCNC(=O)c1ccc(-c2ccccn2)cc1)C[C@@H]1C[C@H]1c1cccc(Cl)c1Cl.Cl | 6.38
CCN(CCCCNC(=O)c1cc2ccccc2[nH]1)CC1CC1c1cc(F)ccc1OC (stereo not given) | 7.31

**Query** Lookup: pKi / 5-hydroxytryptamine receptor 2C (Homo sapiens) / CCCN(CCCCNC(=O)c1ccc(-c2ccccn2)cc1)C[C@H]1C[C@@H]1c1cc(F)ccc1OC.Cl
**Result** 7.30

**Query** Same again, this time with CCCN(CCCCNC(=O)c1cc2ccccc2[nH]1)CC1CC1c1ccc(Cl)cc1 (stereo not given)
**Result** 6.86

**Query** Another: CCCN(CCCCNC(=O)c1ccc2ccccc2c1)C[C@H]1C[C@@H]1c1cccc(Cl)c1Cl.Cl
**Result** 6.86

**Query** Moving on to the next compound: CCCN(CCCCNC(=O)c1ccc2ccccc2c1)CC1CC1c1cccc(F)c1 (stereo not given)
**Result** 6.78

**Query** And what about the compound COc1ccc(F)cc1C1CC1CN(CCCSc1nnc(-c2ccccc2)n1C)CC1CC1 (stereo not given) ?
**Result** 6.90

**Query** Another compound to check: CCCN(CCCCNC(=O)c1ccc(-c2ccccn2)cc1)C[C@@H]1C[C@H]1c1cc(F)ccc1OC.Cl
**Result** 5.95

**Query** Then this compound: CCCN(CCCCNC(=O)c1ccc(-c2ccccn2)cc1)CC1CC1c1ccc(Cl)cc1 (stereo not given)
**Result** 6.55

**Query** Can you handle CCCN(CCCCNC(=O)c1ccc(-c2ccccn2)cc1)CC1CC1c1ccc(F)cc1 (stereo not given) next?
**Result** 5.66

====

molecular target: D(1A) dopamine receptor (Homo sapiens, UniProt P21728); experiment: Displacement of [3H]-SCH23390 from recombinant human D1 receptor transiently expressed in HEKT cell membranes measured after 90 mins by microbeta scintillation counting method
Sequence (P21728 whole entry): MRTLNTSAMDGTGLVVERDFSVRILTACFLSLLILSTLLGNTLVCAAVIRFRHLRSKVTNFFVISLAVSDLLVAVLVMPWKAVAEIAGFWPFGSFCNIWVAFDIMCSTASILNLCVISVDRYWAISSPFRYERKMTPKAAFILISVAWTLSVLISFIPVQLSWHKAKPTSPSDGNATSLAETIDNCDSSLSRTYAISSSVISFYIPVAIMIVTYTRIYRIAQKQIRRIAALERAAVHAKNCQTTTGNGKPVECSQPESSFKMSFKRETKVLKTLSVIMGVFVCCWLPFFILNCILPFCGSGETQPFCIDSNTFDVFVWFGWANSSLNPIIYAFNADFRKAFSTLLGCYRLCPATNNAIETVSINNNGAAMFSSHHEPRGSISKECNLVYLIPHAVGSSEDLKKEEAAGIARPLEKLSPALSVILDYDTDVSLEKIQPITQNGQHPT
Parameter Measured: Ki (nM)
Please state the figure in nM; there is no need to write the unit.

**Query** Which Ki is reported for this compound? CCCN(CCCCNC(=O)c1ccc2ccccc2c1)CC1CC1c1cccc(Cl)c1Cl (racemic)
**Result** 891

**Query** Further, for CN(CCCSc1nnc(-c2ccccc2)n1C)CC1CC1c1cc(F)ccc1OCCF (stereo unspecified) ?
**Result** 1470

**Query** // next record CCN(CCCSc1nnc(-c2ccccc2)n1C)CC1CC1c1cc(Cl)ccc1OC (stereo unspecified)
**Result** 1510

**Query** Please answer likewise for CCN(CCCCNC(=O)c1ccc2ccccc2c1)CC1CC1c1cc(F)ccc1OC (stereo unspecified)
**Result** 986

**Query** Now consider CCCN(CCCCNC(=O)c1cc2ccccc2[nH]1)C[C@@H]1C[C@H]1c1cccc(Cl)c1Cl.Cl .
**Result** 1380

====

biological target: D(1A) dopamine receptor (Homo sapiens, UniProt P21728); assay: Displacement of [3H]-SCH23390 from recombinant human D1 receptor transiently expressed in HEKT cell membranes measured after 90 mins by microbeta scintillation counting method
# pKi listing for each entry below
Here pKi is given on a logarithmic scale as minus log10 of the concentration in mol/L.

// worked examples, pKi included
CCCN(CCCCNC(=O)c1ccc(-c2ccccn2)cc1)CC1CC1c1ccc(C(F)(F)F)cc1 (stereo unspecified) | 5.85
CCCN(CCCCNC(=O)c1ccc2ccccc2c1)C[C@H]1C[C@@H]1c1cccc(Cl)c1Cl.Cl | 5.98
CCCN(CCCCNC(=O)c1ccc2ccccc2c1)C[C@@H]1C[C@H]1c1cccc(Cl)c1Cl.Cl | 5.89
CCCN(CCCCNC(=O)c1ccc2ccccc2c1)CC1CC1c1cccc(F)c1 (stereo unspecified) | 5.88

**Query** pKi lookup needed for CCN(CCCCNC(=O)c1cc2ccccc2[nH]1)CC1CC1c1cc(F)ccc1OC (stereo unspecified) , thanks.
**Result** 5.96

**Query** Same for CCCN(CCCCNC(=O)c1cc2ccccc2[nH]1)CC1CC1c1ccc(F)cc1 (stereo unspecified)
**Result** 5.84

**Query** Consider next the molecule CCCN(CCCCNC(=O)c1ccc(-c2ccccn2)cc1)CC1CC1c1cccc(Cl)c1 (stereo unspecified) in the same way.
**Result** 6.08

**Query** // same read-out, input: CCCN(CCCCNC(=O)c1ccc2ccccc2c1)CC1CC1c1ccc(F)cc1 (stereo unspecified)
**Result** 6.00

====

biological target: D(1A) dopamine receptor (Homo sapiens); assay: Displacement of [3H]-SCH23390 from recombinant human D1 receptor transiently expressed in HEKT cell membranes measured after 90 mins by microbeta scintillation counting method
Parameter Measured: Ki (nM)
Value expressed in nM; do not type the unit.

Answered cases to consult:
CCCN(CCCCNC(=O)c1cc2ccccc2[nH]1)CC1CC1c1cc(F)ccc1OC (stereo not drawn) | 871
CCCN(CCCCNC(=O)c1ccc2ccccc2c1)CC1CC1c1cccc(Cl)c1 (stereo not drawn) | 940

// next entry
**Query** Hi! What's the reported Ki for CCCN(CCCCNC(=O)c1cc2ccccc2[nH]1)CC1CC1c1cccc(Cl)c1 (stereo not drawn) on D(1A) dopamine receptor (Homo sapiens)?
**Result** 992
